- measurement.target: Histone-arginine methyltransferase CARM1 (Homo sapiens, UniProt Q86X55)
- Sequence (Q86X55 whole entry): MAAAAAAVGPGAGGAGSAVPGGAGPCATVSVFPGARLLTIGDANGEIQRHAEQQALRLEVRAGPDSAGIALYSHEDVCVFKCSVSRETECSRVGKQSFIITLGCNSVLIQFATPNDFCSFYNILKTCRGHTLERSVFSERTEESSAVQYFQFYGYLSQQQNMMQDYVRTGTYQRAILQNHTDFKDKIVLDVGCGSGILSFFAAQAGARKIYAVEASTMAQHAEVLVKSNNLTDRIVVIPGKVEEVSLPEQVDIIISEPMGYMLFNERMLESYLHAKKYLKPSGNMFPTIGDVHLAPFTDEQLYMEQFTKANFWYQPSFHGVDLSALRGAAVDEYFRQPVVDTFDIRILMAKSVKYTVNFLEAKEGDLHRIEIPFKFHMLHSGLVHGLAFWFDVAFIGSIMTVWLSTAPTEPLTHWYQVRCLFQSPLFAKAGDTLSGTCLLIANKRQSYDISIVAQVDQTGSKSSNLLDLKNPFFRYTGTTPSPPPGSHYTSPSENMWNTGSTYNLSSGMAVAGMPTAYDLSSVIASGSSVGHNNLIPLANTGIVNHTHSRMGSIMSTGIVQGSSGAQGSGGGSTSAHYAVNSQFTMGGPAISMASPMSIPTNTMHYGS
- test.method.notes: Inhibition of human GST-tagged CARM1 by methylation assay
readout: IC50 (µM)

chem_smiles=C[C@H](N)C(=O)NCc1ccc(-n2nc(C(F)(F)F)cc2C(=O)NCc2ccccc2)cc1 qualifier_symbol=> data_value=50
chem_smiles=C[C@H](N)C(=O)NCc1cccc(-n2nc(C(F)(F)F)cc2C(=O)NC2CCCCC2)c1 qualifier_symbol== data_value=4.3
chem_smiles=C[C@H](N)C(=O)NCc1cccc(-n2nc(C(F)(F)F)cc2C(=O)N[C@H](C)c2ccccc2)c1 qualifier_symbol== data_value=0.18
chem_smiles=CS(=O)(=O)c1ccccc1-c1ccc(NC(=O)c2cc(C(F)(F)F)nn2-c2cccc(CNC(=O)CN)c2)cc1 qualifier_symbol== data_value=1.8
chem_smiles=C[C@H](N)C(=O)NCc1ccccc1-n1nc(C(F)(F)F)cc1C(=O)NCc1ccccc1 qualifier_symbol=> data_value=50
chem_smiles=CS(=O)(=O)c1cccc(NC(=O)c2cc(C(F)(F)F)nn2-c2cccc(CNC(=O)CN)c2)c1 qualifier_symbol== data_value=0.23
chem_smiles=C[C@@H](N)C(=O)NCc1cccc(-n2nc(C(F)(F)F)cc2C(=O)Nc2ccc(-c3ccccc3S(C)(=O)=O)cc2F)c1 qualifier_symbol== data_value=20.1
chem_smiles=C[C@H](N)C(=O)NCc1cccc(-n2nc(C(F)(F)F)cc2C(=O)N[C@@H](C)c2ccccc2)c1 qualifier_symbol== data_value=7.1
